Target: T1, ARHGAP21, Q5T5U3
T1 sequence (Q5T5U3 45-169, limits assumed, looked up): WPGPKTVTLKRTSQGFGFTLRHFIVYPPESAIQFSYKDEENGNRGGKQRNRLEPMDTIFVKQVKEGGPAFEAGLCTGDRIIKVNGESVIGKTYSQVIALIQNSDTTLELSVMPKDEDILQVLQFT
Assay: holdup assay
Parameters: key: below the threshold = too weak to quantify, mostly under pKd 3.1 to 4
Conditions: plain residues with an end cap or a label only (N-terminal biotin on a linker: ttds)
METRIC_NAME: pKd

Sample records with pKd:
{"BINDER": "DLDEEEDTHL [PODXL, O00592]", "pKd": 3.56}
{"BINDER": "FVETQHQTQV [FAT3, Q8TDW7]", "pKd": "below the threshold"}
{"BINDER": "QRPYRRESEI [KCNJ12, Q14500]", "pKd": "below the threshold"}
{"BINDER": "NPDALPETLV [ARHGAP6, O43182]", "pKd": "below the threshold"}
{"BINDER": "SRSRRRETAL [HPV33-E6, P06427]", "pKd": 3.45}

Fill in pKd for each of the 3 binders listed.
1. GRLLGLETNV [ARHGEF26, Q96DR7]
2. SHSSKGETAV [FZD7, O75084]
3. PSRDRKETSI [RALBP1, Q15311]

1: below the threshold; 2: below the threshold; 3: below the threshold
